target.or.system: T1, peanut allergen Ara h 2 (peanut (Arachis hypogaea)) (UniProt Q6PSU2)
T1 sequence (looked up): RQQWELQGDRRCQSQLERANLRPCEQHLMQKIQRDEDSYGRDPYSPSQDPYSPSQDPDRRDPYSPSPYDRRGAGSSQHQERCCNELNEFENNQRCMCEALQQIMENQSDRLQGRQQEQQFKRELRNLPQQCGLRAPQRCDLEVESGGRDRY
measurement.notes: ImmunoCAP, hybridoma supernatant
value.kind: log10 of ImmunoCAP kUA/L (log10 of the value in kUA/L)

binder	measured
human IgE mAb 3B7 (antibody, V domains shown) VH: QVQLVQSGSELKKPGASMKVSCKASGYTFTNYAMNWVRQAPGQGLEWMGWINTNTGKPTYAQGFTGRFVFSLDTSVSMAYLQISSLEAGDTAVYFCARGESLAALGSFAYWGQGTLVTVSS VL: DIQMTQSPSSLSASVGDRVTITCRASQSINSYLAWYQQKPGKAPNLLIYAASNLQSGVPSRFSGSGSGTDFTLTISSLQPEDFATYYCQQSSSTFWTFGQGTKVEIK	-0.20
human IgE mAb 7B6 (antibody, V domains shown) VH: QVQLQQWGAGLLKPSETLSLTCAVYGGSFNGYYWSWIRQPPGKGLEWIGEIDHSGSTNYNSSLKSRVTISVDTSKNQFSLKLSSVTAADTAVYYCARRRIGSLLKYFQDWGQGTLVTVSS VL: SYELTQPPSVSVSPGQTASITCSGDKLGDSYVCWYQLKPGQSPVLVIYQDTKRPSGIPERFSGSNSGNTATLTISETQAMDEADYYCQAWDTTTDWVFGGGTKLTVL	-0.39
human IgE mAb 38B7 (antibody, V domains shown) VH: QVQLVESGGGVVQPGRSLRLSCVGSGFTFRRDAKYWVRQAPGKGLEWVAAISHDGGEEDYAESVKGRFTISRDNSRETVYLEMNSLRPEDTAVYYCATTRSGWYFDYWGQGALVTVSS VL: EIVLTQSPATLSLSPGARATLSCRASQSVDTYLAWYQQRRGQSPRLLIYDASKRATGIPARFSGSGSGTDFTLTISSLEPEDFAVYYCQQRNNWRTWTFGQGTKVEIN	2.31
human IgE mAb 3C3 (antibody, V domains shown) VH: QLQLQESGPGLVKPSETLSLTCSISGASINSDDYYWGWIRQAPGEALEWIASIDASGTTFYNPSLRSRVTISVDTSTNQISLRLNSVTAADTAIYYCARRKTYYDFLTDYYNWYFDVWGRGTLVTVSS VL: QSALTQPRSVSGSPGQSVTFSCTGINSDIRDYDYVSWYQQHPGEAPKLIIYDVTKRASGVPSRFSGSKSGNTASLTISGLQAEDEADYYCCSYSVTYSFEVFGTGTQVSVL	-0.07
human IgE mAb 15A7 (antibody, V domains shown) VH: QVQLVQSGPEVRKPGASVKVSCKTSGYMFTDYEMNWVRQAPGQGLEWMGLINPHSGDTGYAQKFQGRVSMTSDTSTRTFYLELTGLTSEDTAVYYCARSQGTFEVYYFVSWGQGSLVTVSS VL: SYVLTQPPSVSVAPGKTASITCGAKNIATKRVHWYRQKPGQAPVVVVSDEEDRSSVIPERFSGSKSGDTATLEISRVEAGDEADYYCQVWDSLADQVVFGGGTKVTVL	1.41
